- Test system: Fer (mouse);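 further: 11-residue human phosphosite peptides and single-mutation variants displayed on the E. coli surface, counted by deep sequencing, each peptide's frequency after selection divided by its frequency in the unselected input library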;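 further: frequency after pTyr selection over input frequency; kinase dosed for 20-30% of maximal phosphorylation in three min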
- assay info: phosphorylation enrichment, bacterial display (enrichment ratio); higher = better substrate or ligand; peptides without Tyr show the background
quantity measured: phosphorylation enrichment
I'd appreciate a reply containing only the number, no unit.

Measured phosphorylation enrichment (Fer (mouse)), entry RIVEIYTRRLQ [GCH1_Y175_S176T] : 0.436

Measured phosphorylation enrichment (Fer (mouse)), entry VDSTEYEVASQ [SLC7A7_Y7] : 0.598

Measured phosphorylation enrichment (Fer (mouse)), entry SGTYQYIIAKF [FOXL2_Y83_I80T] : 2.58

Measured phosphorylation enrichment (Fer (mouse)), entry SENFTYIWWLN [PSG4_Y271_K267E_YF] : 0.674

Measured phosphorylation enrichment (Fer (mouse)), entry ALIKAYVKAVA [SMN1_Y43_D44V] : 0.445

Measured phosphorylation enrichment (Fer (mouse)), entry KLLLKYSFHDV [RNF213_Y4141] : 0.537

Measured phosphorylation enrichment (Fer (mouse)), entry YFCRWYRNRKS [EREG_Y144] : 0.478

Measured phosphorylation enrichment (Fer (mouse)), entry NHQFDYTFHWT [CSNK1A1_Y294_D297H_YF] : 5.97

Measured phosphorylation enrichment (Fer (mouse)), entry ENRKFYMDLKE [PURA_Y156_YF] : 0.487

Measured phosphorylation enrichment (Fer (mouse)), entry NKKHHYRELPV [ERN2_Y860] : 1.22

Measured phosphorylation enrichment (Fer (mouse)), entry DGFIDYAEFAK [MCFD2_Y138_YF] : 0.456

Measured phosphorylation enrichment (Fer (mouse)), entry TFEFRYLEDQD [CNOT3_Y746_R750Q_YF] : 0.438

Measured phosphorylation enrichment (Fer (mouse)), entry SVEELYAIPPD [PEAK1_Y797] : 5.23

Measured phosphorylation enrichment (Fer (mouse)), entry WDLSEYSYKDP [ITGA3_Y237] : 0.449

Measured phosphorylation enrichment (Fer (mouse)), entry EFFDGYWEFSV [ITGA2B_Y265_G267E_YF] : 0.515

Measured phosphorylation enrichment (Fer (mouse)), entry FEPWVYSLSYE [PRKDC_Y647_F649L] : 1.77

Measured phosphorylation enrichment (Fer (mouse)), entry IAINKYEVSLI [MYO7A_Y2136_G2137E] : 0.486

Measured phosphorylation enrichment (Fer (mouse)), entry VGEGPYLISDL [ABCC12_Y7] : 0.578

Measured phosphorylation enrichment (Fer (mouse)), entry YGAHKYHPLPV [OAT_Y55_N54K] : 1.08

Measured phosphorylation enrichment (Fer (mouse)), entry RKKLFYKADGE [SERPINC1_Y272_E269K] : 0.587

Measured phosphorylation enrichment (Fer (mouse)), entry REDVFYTSKLW [AKR1C2_Y81_I79V] : 0.422

Measured phosphorylation enrichment (Fer (mouse)), entry EFISECCGEII [EZH2_Y641_Y641C] : 0.508
